Source: patent EP1192182B1

- ASSAY SYSTEM: T1, PACAP-R3 (human, UniProt P41587 24-438)
- T1 sequence (looked up): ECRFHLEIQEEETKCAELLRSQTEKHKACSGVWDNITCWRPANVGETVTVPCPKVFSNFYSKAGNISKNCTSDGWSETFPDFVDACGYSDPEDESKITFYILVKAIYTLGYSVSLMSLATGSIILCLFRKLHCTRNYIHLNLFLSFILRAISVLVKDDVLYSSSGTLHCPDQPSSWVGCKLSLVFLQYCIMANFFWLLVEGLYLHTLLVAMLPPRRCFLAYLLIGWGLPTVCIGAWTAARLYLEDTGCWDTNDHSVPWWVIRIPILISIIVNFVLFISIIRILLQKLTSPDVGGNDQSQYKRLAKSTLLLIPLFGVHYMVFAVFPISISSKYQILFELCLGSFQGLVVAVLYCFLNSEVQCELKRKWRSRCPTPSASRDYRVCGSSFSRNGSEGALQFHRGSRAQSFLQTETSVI
- EXPERIMENTAL PROTOCOL: cell-based or functional assay
Threshold check on R3 EC50: strictly below 0.2 nM is criterion met; on or above 0.2 nM is criterion not met.

For this binder, is R3 EC50 lower than 0.2 nM? HSDAVFTDNYTRLRKQMAAKKYLNSIKNKH [R3P158]
criterion met

Further cases:
Take the binder HSDAVFTDNYTRLRKQMAAKKYLNSIRNKR [R3P127] and say whether its R3 EC50 is less than 0.2 nM.
criterion not met

# repeat for HSDAVFTDNYTRLRKQMAPKKYLNSIKNKR [R3P107]
criterion not met

Record: HSDAVFTDNYTRLRKQMAGKKYLNSIKNKR [R3P100]
criterion not met
